# credit: patent US10144715B2

Each entry below carries its recorded EC50.
# target.under.test: Gal4 DNA binding domain fused to the LBD of LXRα in HEK293 cells (Homo sapiens (Human), UniProt Q13133)
# Sequence (Q13133 209-447): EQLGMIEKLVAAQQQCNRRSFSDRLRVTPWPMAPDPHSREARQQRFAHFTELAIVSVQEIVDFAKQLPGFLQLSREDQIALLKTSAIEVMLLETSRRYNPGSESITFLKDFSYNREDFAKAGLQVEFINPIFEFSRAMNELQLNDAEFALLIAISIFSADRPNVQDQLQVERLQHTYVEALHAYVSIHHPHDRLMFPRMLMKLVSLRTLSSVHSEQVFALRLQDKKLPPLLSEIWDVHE
# measurement.notes: LXR luciferase transcriptional reporter gene assay, agonist mode, LXRα
# Format: cell-based

smiles.repr: CC(C)[C@@H]1CN(c2ccc(F)c(S(C)(=O)=O)c2)CCN1c1ncc(C(F)(F)F)cc1N
EC50 [µM]: 3.77
--
smiles.repr: CC(C)[C@@H]1CN(c2ccc(F)c(S(C)(=O)=O)c2)CCN1C(=O)OC(C)(C)C(F)(F)F
EC50 [µM]: 0.947
--
smiles.repr: CS(=O)(=O)c1cccc(N2CCN(Cc3ccc(OC(F)F)cc3)[C@@H](c3ccccc3)C2)c1
EC50 [µM]: 3.75
